system: A-431; assay: Anticancer activity against human A431 cells assessed as reduction in cell viability measured after 72 hrs by MTT assay; type: functional, cell-based; conditions: A-431, 72 h
assay_readout: pIC50
Friendly reminder that pIC50 comes from taking -log10 of the concentration in mol/L.

COC(=O)Cc1ccc(S[C@@H]2O[C@@H]3O[C@@]4(C)CC[C@H]5[C@H](C)CC[C@@H]([C@H]2C)[C@@]35OO4)cc1; 4.88

Shift focus to the following entry.
Query: Retrieve pIC50 measured for `CCCCCCS[C@H]1O[C@@H]2O[C@@]3(C)CC[C@H]4[C@H](C)CC[C@@H]([C@H]1C)[C@@]24OO3` and print it.
Reply: 5.40
